B1: WEE1 (parent)
chain: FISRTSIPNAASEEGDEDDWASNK

Variants of: B1
procedure.summary: protein stability index of a GFP-peptide fusion (GPS, HEK-293T) (PSI 1-6); higher = more stable;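 note: lentivirally expressed fusions sorted by FACS into six bins by GFP to DsRed ratio, PSI derived from sequencing read proportions per bin multiplied by bin number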
cond: c terminus: a fixed tail appended
Where protein stability index equals or exceeds 4, the correct label is 1 (yes); where it does not, the label is 0 (no).

Assess whether reported protein stability index for "FASRTSIPNAASEEGDEDDWASNK" sits at 4 or higher.
1 (yes)

Assess whether reported protein stability index for "FISRTSIDNAASEEGDEDDWASNK" sits at 4 or higher.
1 (yes)

Assess whether reported protein stability index for "FISRTPIPNAASEEGDEDDWASNK" sits at 4 or higher.
0 (no)

Assess whether reported protein stability index for "FISRTSIPNAASEEGDEDDWASNM" sits at 4 or higher.
0 (no)

Assess whether reported protein stability index for "FISRTSIPSAASEEGDEDDWASNK" sits at 4 or higher.
0 (no)

Assess whether reported protein stability index for "FISRTSIPNAASEEGDEDDWTSNK" sits at 4 or higher.
1 (yes)

Assess whether reported protein stability index for "FISGTSIPNAASEEGDEDDWASNK" sits at 4 or higher.
1 (yes)

Assess whether reported protein stability index for "FISRTSIPNAASEEGDEDTWASNK" sits at 4 or higher.
0 (no)

Assess whether reported protein stability index for "FISRTSIPCAASEEGDEDDWASNK" sits at 4 or higher.
0 (no)

Assess whether reported protein stability index for "FIVRTSIPNAASEEGDEDDWASNK" sits at 4 or higher.
0 (no)

Assess whether reported protein stability index for "FISRTSIPNAASREGDEDDWASNK" sits at 4 or higher.
1 (yes)

Assess whether reported protein stability index for "FISRCSIPNAASEEGDEDDWASNK" sits at 4 or higher.
0 (no)

Assess whether reported protein stability index for "FISRTSIPFAASEEGDEDDWASNK" sits at 4 or higher.
0 (no)

Assess whether reported protein stability index for "FIWRTSIPNAASEEGDEDDWASNK" sits at 4 or higher.
0 (no)

Assess whether reported protein stability index for "FISRTSIPNAASMEGDEDDWASNK" sits at 4 or higher.
0 (no)

Assess whether reported protein stability index for "FISRTSIPNAASEEGDEDDWPSNK" sits at 4 or higher.
0 (no)

Assess whether reported protein stability index for "FISRTSIPNAASEEGDENDWASNK" sits at 4 or higher.
0 (no)

Assess whether reported protein stability index for "FISRTSIPNAASEEGDEDDWQSNK" sits at 4 or higher.
0 (no)

Assess whether reported protein stability index for "FISRTSIPNAAPEEGDEDDWASNK" sits at 4 or higher.
1 (yes)

Assess whether reported protein stability index for "FISRTSIPNAASEEGDEDDIASNK" sits at 4 or higher.
1 (yes)

Assess whether reported protein stability index for "FISRTSMPNAASEEGDEDDWASNK" sits at 4 or higher.
1 (yes)
